target: T1, human soluble αvβ5 protein (extracellular domains of human αv and β5 integrin subunits) (human, UniProt P06756 31-992; P18084 24-719); assay: ELISA, Fab blocking of 2 nM soluble αvβ5 binding to immobilized human plasma vitronectin
T1 construct: also called biotin-αvβ5; hsαvβ5
T1 sequence (P06756 31-992 limits assumed, chain 1 of 2): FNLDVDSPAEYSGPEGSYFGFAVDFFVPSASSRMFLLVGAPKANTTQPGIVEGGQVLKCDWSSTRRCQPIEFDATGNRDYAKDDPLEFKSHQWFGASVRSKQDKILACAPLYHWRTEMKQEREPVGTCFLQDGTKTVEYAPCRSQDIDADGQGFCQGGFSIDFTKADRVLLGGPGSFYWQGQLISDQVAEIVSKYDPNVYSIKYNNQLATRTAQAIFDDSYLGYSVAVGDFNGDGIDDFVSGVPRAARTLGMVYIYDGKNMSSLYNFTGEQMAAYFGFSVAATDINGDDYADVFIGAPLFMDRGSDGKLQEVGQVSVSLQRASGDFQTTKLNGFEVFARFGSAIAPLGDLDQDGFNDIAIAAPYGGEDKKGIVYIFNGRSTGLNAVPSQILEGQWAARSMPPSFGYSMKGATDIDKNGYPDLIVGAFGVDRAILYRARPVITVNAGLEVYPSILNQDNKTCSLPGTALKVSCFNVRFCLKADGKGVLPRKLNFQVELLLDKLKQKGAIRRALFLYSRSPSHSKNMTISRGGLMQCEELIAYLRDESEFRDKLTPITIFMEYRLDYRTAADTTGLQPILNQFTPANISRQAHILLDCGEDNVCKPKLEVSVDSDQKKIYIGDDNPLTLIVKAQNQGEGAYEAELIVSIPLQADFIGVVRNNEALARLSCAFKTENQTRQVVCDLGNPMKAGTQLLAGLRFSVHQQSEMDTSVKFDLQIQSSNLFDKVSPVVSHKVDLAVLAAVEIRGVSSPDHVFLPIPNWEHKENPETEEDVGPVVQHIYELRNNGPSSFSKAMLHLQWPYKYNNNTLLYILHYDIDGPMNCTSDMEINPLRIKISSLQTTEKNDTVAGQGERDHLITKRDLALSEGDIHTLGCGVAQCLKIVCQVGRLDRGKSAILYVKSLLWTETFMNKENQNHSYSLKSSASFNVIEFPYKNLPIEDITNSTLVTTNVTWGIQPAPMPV
T1 sequence (P18084 24-719 limits assumed, chain 2 of 2): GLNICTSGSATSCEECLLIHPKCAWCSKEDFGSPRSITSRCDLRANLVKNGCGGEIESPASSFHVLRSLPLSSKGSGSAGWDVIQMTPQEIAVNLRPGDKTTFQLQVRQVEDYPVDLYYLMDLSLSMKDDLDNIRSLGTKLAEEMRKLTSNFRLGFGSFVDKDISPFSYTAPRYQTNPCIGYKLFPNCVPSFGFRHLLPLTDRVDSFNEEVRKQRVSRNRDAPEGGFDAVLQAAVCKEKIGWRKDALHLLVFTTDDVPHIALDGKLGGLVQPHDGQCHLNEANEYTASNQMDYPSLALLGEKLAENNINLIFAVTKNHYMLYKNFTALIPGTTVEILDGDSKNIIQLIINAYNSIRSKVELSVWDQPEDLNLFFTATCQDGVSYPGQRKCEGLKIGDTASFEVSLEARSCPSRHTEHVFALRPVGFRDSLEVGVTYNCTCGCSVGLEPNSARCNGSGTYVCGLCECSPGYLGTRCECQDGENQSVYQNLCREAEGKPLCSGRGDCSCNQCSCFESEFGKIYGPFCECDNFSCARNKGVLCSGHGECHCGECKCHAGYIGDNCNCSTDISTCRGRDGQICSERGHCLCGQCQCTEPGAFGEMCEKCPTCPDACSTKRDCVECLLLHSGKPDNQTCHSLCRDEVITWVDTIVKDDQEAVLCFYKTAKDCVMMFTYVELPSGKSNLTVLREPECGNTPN
OUTCOME_MEASURE: Fold change (IC50 against mouse chimeric ALULA) (fold)
State the answer as a number, implicitly in fold.

Known results for binders:
For VH4/VL2 Fab fragment (Fab, V domains shown, also called H4/L2 (Fab source); H4L2 hIgG1 Fab) VH: EVQVVQSGGGLVKPGESLRLSCKASGYTFTSYWMHWVKQAPGKGLEWVGAIYPGNSDTSYNQKFKGKFTISADTSPNTAYLQMNSLKTEDTAVYYCTTTTYGYDWFAYWGQGTLVTVSS VL: NIQMTQSPSSLSASVGDRVTMSCKSSQSVLYSSNQKNYLAWYQQKPGKSPKLLIYWASTRESGVPDRFTGSGSGTDFTLTISSLQPEDFATYYCHQYLSSLTFGQGTKLEIK the binder record lists Fold change (IC50 against mouse chimeric ALULA) as 0.9

For VH2/VL2 Fab fragment (Fab, V domains shown, also called H2/L2 (Fab source); H2L2 hIgG1 Fab) VH: EVQVVQSGGGLVKPGESLRLSCAASGYTFTSYWMHWVKQAPGKGLEWVGAIYPGNSDTSYNQKFKGKFTISADTSSNTAYLQMNSLKTEDTAVYYCTTTTYGYDWFAYWGQGTLVTVSS VL: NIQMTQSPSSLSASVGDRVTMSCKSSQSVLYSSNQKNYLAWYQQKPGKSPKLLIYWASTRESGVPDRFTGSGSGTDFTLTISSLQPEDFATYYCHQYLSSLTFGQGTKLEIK the binder record lists Fold change (IC50 against mouse chimeric ALULA) as 1.5

For VH4/VL0 Fab fragment (Fab, V domains shown, also called H4/L0 (Fab source); H4L0 hIgG1 Fab) VH: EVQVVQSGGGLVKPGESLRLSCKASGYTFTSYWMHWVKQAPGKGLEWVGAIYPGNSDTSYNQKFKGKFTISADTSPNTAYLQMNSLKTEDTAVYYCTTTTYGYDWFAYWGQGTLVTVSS VL: DIQMTQSPSSVSASVGDRVTITCKSSQSVLYSSNQKNYLAWYQQKPGKAPKLLIYWASTRESGVPSRFSGSGSGTDFTLTISSLQPEDFATYYCHQYLSSLTFGQGTKVEIK the binder record lists Fold change (IC50 against mouse chimeric ALULA) as 1.6

More entries:
For VH5/VL2 Fab fragment (Fab, V domains shown, also called H5/L2 (Fab source); H5L2 hIgG1 Fab) VH: EVQVQQSGGGLVKPGGSLRLSCKASGYTFTSYWMHWVKQAPGKGLEWVGAIYPGNSDTSYNQKFKGKATLSAVTSPNTAYLQMNSLKTEDTAVYYCTTTTYGYDWFAYWGQGTLVTVSS VL: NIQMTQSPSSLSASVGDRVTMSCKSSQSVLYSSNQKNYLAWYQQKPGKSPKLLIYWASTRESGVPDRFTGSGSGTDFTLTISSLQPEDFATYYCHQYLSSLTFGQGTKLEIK the binder record lists Fold change (IC50 against mouse chimeric ALULA) as 1.4
